Reported Kd by item:
# PROTOCOL_NOTES: Binding affinity to 5'-biotin-labelled HRAS-1 Y i-motif DNA (unknown origin) by surface plasmon resonance analysis

>  <MOLECULE>
COc1ccc(CCN(C)C2CCCN(c3ccnc(N(C)C)n3)C2)cc1OC (stereo not drawn)

>  <OPERATOR>
>

>  <Kd [µM]>
300

$$$$
>  <MOLECULE>
CC(c1ccc(-c2cc(N3CCOCC3)nc(N)n2)cc1)C(C)N1CCCC1 (stereo not drawn)

>  <OPERATOR>
=

>  <Kd [µM]>
149

$$$$
>  <MOLECULE>
COc1cc(-c2ccc(C(C)N3CCCCC3)cc2)nc(N)n1 (stereo not drawn)

>  <OPERATOR>
=

>  <Kd [µM]>
51

$$$$
>  <MOLECULE>
COc1ccc(CCN(C)C2CCCN(c3cc(C)nc(N)n3)C2)cc1OC (stereo not drawn)

>  <OPERATOR>
=

>  <Kd [µM]>
11.6

$$$$
>  <MOLECULE>
COc1ccc(CCCNc2nc(N)nc3c2CCNCC3)cc1OC

>  <OPERATOR>
=

>  <Kd [µM]>
78

$$$$
>  <MOLECULE>
CC(c1ccc(-c2cc(N3CCCC3)nc(N)n2)cc1)N(C)C (stereo not drawn)

>  <OPERATOR>
>

>  <Kd [µM]>
300

$$$$
>  <MOLECULE>
NCCn1cc(C(=O)NC2CCCN(Cc3cccc(O)c3)C2)nn1 (stereo not drawn)

>  <OPERATOR>
=

>  <Kd [µM]>
243

$$$$
>  <MOLECULE>
CC(c1ccc(-c2cc(NCCO)nc(N)n2)cc1)N1CCCC1 (stereo not drawn)

>  <OPERATOR>
=

>  <Kd [µM]>
7.4

$$$$
>  <MOLECULE>
COc1ccc(CCN(C)C2CCCN(c3ccnc(C)n3)C2)cc1OC (stereo not drawn)

>  <OPERATOR>
=

>  <Kd [µM]>
0.3

$$$$
>  <MOLECULE>
COc1cc(N2CCCC(N(C)CCc3ccc(OC)c(OC)c3)C2)ncn1 (stereo not drawn)

>  <OPERATOR>
=

>  <Kd [µM]>
0.2

$$$$
>  <MOLECULE>
COc1ccc(CCN(C)C2CCCN(c3ccnc(N)n3)C2)cc1OC (stereo not drawn)

>  <OPERATOR>
=

>  <Kd [µM]>
5.9

$$$$
>  <MOLECULE>
Nc1nccc(N2CCCC(CCc3ccccc3)C2)n1 (stereo not drawn)

>  <OPERATOR>
>

>  <Kd [µM]>
300

$$$$
>  <MOLECULE>
COc1cc(-c2ccc(C(C)N3CCCC3)cc2)nc(N)n1 (stereo not drawn)

>  <OPERATOR>
>

>  <Kd [µM]>
300

$$$$

* * *

# PROTOCOL_NOTES: Binding affinity to 5'-AlexaFluor 647-labelled HRAS-1 Y i-motif DNA (unknown origin) by fluorescence titration method

>  <MOLECULE>
COc1cc(N2CCCC(N(C)CCc3ccc(OC)c(OC)c3)C2)ncn1 (stereo not drawn)

>  <OPERATOR>
=

>  <Kd (µM)>
0.6

$$$$
>  <MOLECULE>
COc1cc(-c2ccc(C(C)N3CCCC3)cc2)nc(N)n1 (stereo not drawn)

>  <OPERATOR>
>

>  <Kd (µM)>
209

$$$$
>  <MOLECULE>
COc1cc(-c2ccc(C(C)N3CCCCC3)cc2)nc(N)n1 (stereo not drawn)

>  <OPERATOR>
=

>  <Kd (µM)>
254

$$$$
>  <MOLECULE>
CC(c1ccc(-c2cc(N3CCCC3)nc(N)n2)cc1)N(C)C (stereo not drawn)

>  <OPERATOR>
=

>  <Kd (µM)>
106

$$$$
>  <MOLECULE>
COc1ccc(CCN(C)C2CCCN(c3ccnc(N(C)C)n3)C2)cc1OC (stereo not drawn)

>  <OPERATOR>
=

>  <Kd (µM)>
50.4

$$$$
>  <MOLECULE>
CC(c1ccc(-c2cc(NCCO)nc(N)n2)cc1)N1CCCC1 (stereo not drawn)

>  <OPERATOR>
=

>  <Kd (µM)>
1.6

$$$$
>  <MOLECULE>
CC(c1ccc(-c2cc(N3CCOCC3)nc(N)n2)cc1)C(C)N1CCCC1 (stereo not drawn)

>  <OPERATOR>
=

>  <Kd (µM)>
90.7

$$$$
>  <MOLECULE>
COc1ccc(CCN(C)C2CCCN(c3cc(C)nc(N)n3)C2)cc1OC (stereo not drawn)

>  <OPERATOR>
=

>  <Kd (µM)>
16

$$$$
>  <MOLECULE>
COc1ccc(CCN(C)C2CCCN(c3ccnc(C)n3)C2)cc1OC (stereo not drawn)

>  <OPERATOR>
=

>  <Kd (µM)>
3

$$$$
>  <MOLECULE>
Nc1nccc(N2CCCC(CCc3ccccc3)C2)n1 (stereo not drawn)

>  <OPERATOR>
>

>  <Kd (µM)>
209

$$$$
>  <MOLECULE>
COc1ccc(CCN(C)C2CCCN(c3ccnc(N)n3)C2)cc1OC (stereo not drawn)

>  <OPERATOR>
=

>  <Kd (µM)>
35.6

$$$$
>  <MOLECULE>
COc1ccc(CCCNc2nc(N)nc3c2CCNCC3)cc1OC

>  <OPERATOR>
=

>  <Kd (µM)>
30.8

$$$$
>  <MOLECULE>
NCCn1cc(C(=O)NC2CCCN(Cc3cccc(O)c3)C2)nn1 (stereo not drawn)

>  <OPERATOR>
>

>  <Kd (µM)>
209

$$$$
